# Test target: T1, Sla1-2, P32790
# T1 sequence (P32790 60-140, looked up): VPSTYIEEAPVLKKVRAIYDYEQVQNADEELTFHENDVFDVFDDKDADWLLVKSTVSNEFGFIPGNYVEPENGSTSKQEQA
# Test: SPOT array
# Settings: median of control spots 712
Measured quantity: SPOT intensity

Reference set, count: 4
binder=TKPTPPPKPSHLKPK numeric_result=0
binder=HHKRRPTTIDVPGLT numeric_result=2
binder=YLTRPLPSTPNEDSR numeric_result=0
binder=LKVTPGRRAPTISKI numeric_result=0

A. RKQRSIPLSPIVPES
B. RNNRPVPPPPPMRTT
Could you tell me which of A and B has the lower SPOT intensity reading? In your reply, give the label of the chosen option.
A
